measuredTarget: T1, human CD3 (human, UniProt P07766 23-207; P04234 22-171; P09693 23-182)
T1 construct: whole, on cells; also called hCD3; CD3 on Jurkat cells
T1 sequence (P07766 23-207, chain 1 of 3): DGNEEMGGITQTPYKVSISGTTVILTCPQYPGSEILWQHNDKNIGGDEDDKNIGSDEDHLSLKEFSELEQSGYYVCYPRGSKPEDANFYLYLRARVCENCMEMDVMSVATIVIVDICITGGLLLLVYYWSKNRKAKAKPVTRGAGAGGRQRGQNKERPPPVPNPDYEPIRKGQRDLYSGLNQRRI
T1 sequence (P04234 22-171, chain 2 of 3): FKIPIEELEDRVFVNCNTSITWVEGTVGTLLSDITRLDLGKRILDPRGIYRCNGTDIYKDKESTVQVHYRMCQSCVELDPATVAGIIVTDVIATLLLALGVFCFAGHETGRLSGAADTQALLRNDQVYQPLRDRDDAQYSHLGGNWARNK
T1 sequence (P09693 23-182, chain 3 of 3): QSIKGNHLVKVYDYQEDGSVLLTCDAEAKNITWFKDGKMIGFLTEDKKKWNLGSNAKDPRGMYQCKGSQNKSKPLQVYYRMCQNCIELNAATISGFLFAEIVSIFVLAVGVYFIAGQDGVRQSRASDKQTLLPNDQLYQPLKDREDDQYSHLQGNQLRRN
protocolDetails: FACS on Jurkat cells
Listed next: entries and their corresponding EC50.

binder	measurementUnits	EC50
hu40E9-L5H3 (antibody, V domains shown) VH: EVQLVQSGAEVKKPGSSVKVSCKASGYTFSSYVIHWVRQAPGQGLEWMGYINPYNDVIKYNEKFKGRVTLTSDKSTSTAYMELSSLRSEDTAVYYCARDSYYSYDGFAYWGQGTLVTVSS VL: EIVLTQSPDFQSVTPKEKVTITCSASSSVSYMHWYQQKPDQSPKRLIYDTSKLASGVPSRFSGSGSGTDFTLTINSLEAEDAATYYCQQWRSSPPTFGGGTKVEIK	pM	660
hu40E9-L2H9 (antibody, V domains shown) VH: EVQLVQSGAEVKKPGSSVKVSCKASGYTFSSYVIHWVRQAPGQGLEWMGYINPYSDVIKYNEKFKGRVTLTSDKSTSTAYMELSSLRSEDTAVYYCARESFYSYDGFAYWGQGTLVTVSS VL: EIVLTQSPDFQSVTPKEKVTITCSASSSVSYMHWYQQKPDQSPKRLIYDTSKLASGVPSRFSGSGSGTDFTLTINSLEAEDAATYYCQQWSSNPPTFGGGTKVEIK	pM	560
